FYI, the data here is from paper PMC9229294.

Biological target: FPR1 (Homo sapiens, UniProt P21462)
Construct: expressed in transfected cells; host or cells: HL-60 cells (FPR1-HL60)
Sequence (P21462 whole entry): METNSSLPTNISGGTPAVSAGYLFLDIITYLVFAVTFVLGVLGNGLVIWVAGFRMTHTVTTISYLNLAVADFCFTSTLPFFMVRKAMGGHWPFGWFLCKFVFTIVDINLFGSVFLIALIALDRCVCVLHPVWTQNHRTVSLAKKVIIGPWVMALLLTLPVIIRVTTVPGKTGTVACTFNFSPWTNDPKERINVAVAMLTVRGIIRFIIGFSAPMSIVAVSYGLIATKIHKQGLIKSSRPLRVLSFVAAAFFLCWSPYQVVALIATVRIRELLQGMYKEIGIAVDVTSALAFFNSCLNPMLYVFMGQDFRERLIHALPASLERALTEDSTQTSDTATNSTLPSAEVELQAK
Assay: Ca2+ mobilization in FPR1-transfected HL-60 cells (agonist activity)
Format: cell-based
Conditions: reported here for the first time (Suppl.)
pEC50: −log10 of the molar value.
Catalogue of pEC50 readings, one per entry.
measured.endpoint: pEC50

- compound.smiles: "Nc1cc(-c2ccncc2)cn(CC(=O)Nc2ccc(Br)cc2)c1=O"
  target.system: "FPR1 (Homo sapiens, UniProt P21462)"
  meas.value: "< 4.30"
- compound.smiles: "Cc1cc(Cc2ccc(C(=O)Nc3ccc(Br)cc3)cc2)c(=O)n(CC(=O)Nc2ccc(Br)cc2)n1"
  target.system: "FPR1 (Homo sapiens, UniProt P21462)"
  meas.value: "< 4.30"
